tested-system: CYP3A4 (Homo sapiens)
Construct: tissue Corning 452117; host or cells: human liver microsomes
Sequence (P08684 whole entry): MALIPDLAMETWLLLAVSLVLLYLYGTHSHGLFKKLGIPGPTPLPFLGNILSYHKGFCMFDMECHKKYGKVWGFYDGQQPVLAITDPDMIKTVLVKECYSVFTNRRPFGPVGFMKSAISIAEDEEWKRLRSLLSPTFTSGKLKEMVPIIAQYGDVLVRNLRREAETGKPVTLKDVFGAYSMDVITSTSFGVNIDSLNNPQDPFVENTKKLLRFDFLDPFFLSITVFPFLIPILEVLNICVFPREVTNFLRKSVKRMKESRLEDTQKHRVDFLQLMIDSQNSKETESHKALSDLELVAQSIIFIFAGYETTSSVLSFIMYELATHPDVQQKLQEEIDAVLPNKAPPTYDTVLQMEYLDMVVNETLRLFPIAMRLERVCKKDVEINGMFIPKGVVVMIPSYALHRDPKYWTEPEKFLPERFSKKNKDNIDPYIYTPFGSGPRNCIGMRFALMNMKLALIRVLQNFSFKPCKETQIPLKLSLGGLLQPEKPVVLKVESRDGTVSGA
protocol-summary: CYP450 inhibition assay in human liver microsomes, CYP3A4 (midazolam and testosterone)
Assay type: in vitro ADME
assay-conditions: HLM 0.1 mg/mL; probe midazolam 2 µM; 3 min; read-out: IC50 on CYP3A4 (Midazolam)
Procedure: To evaluate the reliability and reproducibility of the CYP450 inhibition assay, we measured the inhibitory effects of selected positive control inhibitors of each CYP450 enzyme in human liver microsomes (HLM, Table 1, Figure 2). […] The total volume of the reaction is 200 μL. […] The substrates and analytes were analyzed by LC-MS/MS (API4000, Applied Biosystems, Singapore; HPLC, Shimadzu, Japan). […]
pIC50: −log10 of the molar value.

{"columns": ["chem-smiles", "pIC50"],
 "data": [
  ["CC(C)(O)[C@@H]1CC[C@@](C)([C@H]2CC[C@]3(C)[C@@H]2[C@H](O)C[C@@H]2[C@@]4(C)CC[C@H](O)C(C)(C)[C@@H]4CC[C@]23C)O1", 5.69]
]}

----------
tested-system: CYP2B6 (Homo sapiens, UniProt P20813)
Construct: tissue Corning 452117; host or cells: human liver microsomes
Sequence (P20813 1-491): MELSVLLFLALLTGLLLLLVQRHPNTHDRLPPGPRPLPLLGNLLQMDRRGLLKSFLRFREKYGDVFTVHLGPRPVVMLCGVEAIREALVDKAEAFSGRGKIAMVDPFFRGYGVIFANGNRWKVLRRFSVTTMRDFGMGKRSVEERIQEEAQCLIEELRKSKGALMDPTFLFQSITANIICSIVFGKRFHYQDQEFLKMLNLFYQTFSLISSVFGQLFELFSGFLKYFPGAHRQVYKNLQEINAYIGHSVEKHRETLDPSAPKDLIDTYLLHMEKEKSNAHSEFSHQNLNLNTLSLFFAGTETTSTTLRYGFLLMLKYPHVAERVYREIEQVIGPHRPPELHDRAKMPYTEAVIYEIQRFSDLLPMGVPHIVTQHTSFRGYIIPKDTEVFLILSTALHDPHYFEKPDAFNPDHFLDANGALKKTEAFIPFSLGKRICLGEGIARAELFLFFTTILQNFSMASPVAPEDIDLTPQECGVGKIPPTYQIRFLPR
protocol-summary: CYP450 inhibition assay in human liver microsomes, CYP2B6
Assay type: in vitro ADME
assay-conditions: HLM 0.1 mg/mL; probe bupropion 80 µM; 10 min

{"columns": ["compound", "IC50, µM"],
 "data": [
  ["CC(C)(O)[C@@H]1CC[C@@](C)([C@H]2CC[C@]3(C)[C@@H]2[C@H](O)C[C@@H]2[C@@]4(C)CC[C@H](O)C(C)(C)[C@@H]4CC[C@]23C)O1 [PDQ]", 45.3]
]}

----------
tested-system: UniProt:O15244
Sequence (O15244 whole entry): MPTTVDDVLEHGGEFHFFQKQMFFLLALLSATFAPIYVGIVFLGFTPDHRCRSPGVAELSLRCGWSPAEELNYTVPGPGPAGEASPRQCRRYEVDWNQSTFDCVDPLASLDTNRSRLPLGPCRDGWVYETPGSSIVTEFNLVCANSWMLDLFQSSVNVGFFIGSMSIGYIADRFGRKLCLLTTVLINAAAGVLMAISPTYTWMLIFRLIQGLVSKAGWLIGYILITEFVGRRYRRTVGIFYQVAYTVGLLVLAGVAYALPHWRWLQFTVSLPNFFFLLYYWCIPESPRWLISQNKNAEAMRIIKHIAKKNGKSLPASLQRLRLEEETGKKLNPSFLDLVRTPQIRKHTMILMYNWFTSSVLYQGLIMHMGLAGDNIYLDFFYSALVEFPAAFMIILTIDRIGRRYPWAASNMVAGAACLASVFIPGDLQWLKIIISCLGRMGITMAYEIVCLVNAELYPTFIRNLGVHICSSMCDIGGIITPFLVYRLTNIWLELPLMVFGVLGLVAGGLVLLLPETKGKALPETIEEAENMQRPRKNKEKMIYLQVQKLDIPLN
protocol-summary: Substrates uptake assay, S2-OCT2 cells (14C-TEA)
assay-conditions: 14C-TEA 5 µM, 5 min
pIC50: −log10 of the molar value.
measured-metric: pIC50

{"columns": ["compound", "assay-result"],
 "data": [
  ["CC(C)(O)[C@@H]1CC[C@@](C)([C@H]2CC[C@]3(C)[C@@H]2[C@H](O)C[C@@H]2[C@@]4(C)CC[C@H](O)C(C)(C)[C@@H]4CC[C@]23C)O1 [PDQ]", "< 4.52"]
]}
